Source listed as patent US6319915A.

Biological target: VEGF/GAG (glycosaminoglycan) (Homo sapiens, UniProt P15692)
Sequence (P15692 1-191 isoform P15692-4): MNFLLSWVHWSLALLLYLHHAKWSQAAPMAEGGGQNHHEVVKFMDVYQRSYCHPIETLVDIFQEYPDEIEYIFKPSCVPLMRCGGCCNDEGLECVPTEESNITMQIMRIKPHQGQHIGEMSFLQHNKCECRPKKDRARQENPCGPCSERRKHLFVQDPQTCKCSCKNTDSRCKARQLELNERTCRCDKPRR
Experiment: in vitro inhibition of VEGF/GAG (glycosaminoglycan) binding ([125I]heparin-16-mer / VEGF165 filter binding)
Details: purified VEGF165 20 nM, 60 minutes at room temperature, 0.16% DMSO
attribute_measured: IC50 (µM)

Sample answers from the record:
[
  {
    "compound": "Cc1ccccc1C1CC(NC(=O)Nc2cccc(-c3nnn[nH]3)c2)C(=O)N(CC(=O)NC2(C)CCCCC2)C(c2ccccc2)C1 (stereo not shown)",
    "result_units": "µM",
    "readout_number": 2
  },
  {
    "compound": "CC1(C)CCCC(C)(C)N1C(=O)CN1C(=O)C(NC(=O)Nc2cccc(-c3nnn[nH]3)c2)COc2cc(F)ccc21 (stereo not shown)",
    "result_units": "µM",
    "readout_number": 1.7
  },
  {
    "compound": "COc1ccccc1C1CC(NC(=O)Nc2cccc(-c3nnn[nH]3)c2)C(=O)N(CC(=O)NC(C)(C)C)C(c2ccccc2)C1 (stereo not shown)",
    "result_units": "µM",
    "readout_number": 0.7
  },
  {
    "compound": "CC1(C)CN(C(=O)CN2C(=O)C(NC(=O)Nc3cccc(-c4nnn[nH]4)c3)CSc3ccccc32)CC(C)(C)C1 (stereo not shown)",
    "result_units": "µM",
    "readout_number": 6.7
  },
  {
    "compound": "COc1ccccc1C1CC(NC(=O)Nc2cccc(C(=O)NS(C)(=O)=O)c2)C(=O)N(CC(=O)NC2(C)CCCCC2)C(c2ccccc2)C1 (stereo not shown)",
    "result_units": "µM",
    "readout_number": 3
  }
]

1. COc1ccccc1C1CC(NC(=O)Nc2cccc(C(=O)Nc3nnn[nH]3)c2)C(=O)N(CC(=O)NC(C)(C)C)C(c2ccccc2)C1 (stereo not shown)
2. COc1ccccc1C1CC(NC(=O)Nc2cccc(C(=O)O)c2)C(=O)N(CC(=O)NC(C)(C)C)C(c2ccccc2)C1 (stereo not shown)
Which gives the smaller IC50 number: 1 or 2 ? Write down the label of the entry you select.
1
(1: 1.7 µM, 2: 4.3 µM)
